System: Caco-2 cells
test-method-notes: MTT cytotoxicity (cell viability)
Format: cell-based, human
condition-info: MTT, 72 h
pIC50: −log10 of the molar value.
outcome-measure: pIC50

Input line: Fill blank: measured pIC50 of the compound CCCCCCCCCC(=O)N[C@H](CC(C)C)C(=O)N[C@H]1C(=O)N[C@@H](CC(N)=O)C(=O)N[C@H]2C(=O)N[C@H]3C(=O)N[C@H](C(=O)N[C@H](C(=O)NCCN)c4cc(OCCN)cc(OCCN)c4-c4cc3ccc4OCCN)[C@H](O)c3ccc(c(Cl)c3)Oc3cc2cc(c3OCCN)Oc2ccc(cc2Cl)[C@H]1O [Compound 14] is ____.
Output line: < 4.00
